Tested on: PEO-1
Test: Excess HSA synergy score (sum over dose matrix of excess over highest single agent) (score (summed % response)); higher = less synergy / more antagonism (negative = synergy)
Details: 72 h; read-out: viability/apoptosis luminescence (CellTiter-Glo or Caspase3-Glo / not stated per table); matrix design: 10x10, 9-step dilutions (confirmatory)
In all, about 1,500 compounds were measured (“Excess HSA synergy score (sum over dose matrix of excess over highest single agent)”: median about 43, lowest 2% from about -900 on). For the sample, the lowest values were picked, then their nearest neighbours and some compounds at random.

[
  {
    "molecule": "CC[C@@H]1C(=O)N(C)c2cnc(Nc3ccc(C(=O)N[C@H]4CC[C@H](N5CCN(CC6CC6)CC5)CC4)cc3OC)nc2N1C(C)C [Volasertib] + CC[C@H](NC(=O)[C@H](C)NC)C(=O)N1C[C@@H](O)C[C@H]1Cc1c(-c2[nH]c3cc(F)ccc3c2C[C@@H]2C[C@H](O)CN2C(=O)[C@H](CC)NC(=O)[C@H](C)NC)[nH]c2cc(F)ccc12",
    "Excess HSA synergy score": -1030
  },
  {
    "molecule": "Nc1ccn([C@@H]2O[C@H](CO)[C@@H](O)C2(F)F)c(=O)n1 [Gemcitabine] + CC[C@H](NC(=O)[C@H](C)NC)C(=O)N1C[C@@H](O)C[C@H]1Cc1c(-c2[nH]c3cc(F)ccc3c2C[C@@H]2C[C@H](O)CN2C(=O)[C@H](CC)NC(=O)[C@H](C)NC)[nH]c2cc(F)ccc12",
    "Excess HSA synergy score": -1130
  },
  {
    "molecule": "Cc1nc(Nc2ncc(C(=O)Nc3c(C)cccc3Cl)s2)cc(N2CCN(CCO)CC2)n1 [Dasatinib] + CC[C@H](NC(=O)[C@H](C)NC)C(=O)N1C[C@@H](O)C[C@H]1Cc1c(-c2[nH]c3cc(F)ccc3c2C[C@@H]2C[C@H](O)CN2C(=O)[C@H](CC)NC(=O)[C@H](C)NC)[nH]c2cc(F)ccc12",
    "Excess HSA synergy score": -1400
  }
]
